Counter-ions that a name gives are not always drawn.
measurement.type: melting point

Ask | Request the reported melting point associated with CCN(CCCN1CC[C@@]2(C)c3cc(O)ccc3C[C@@H]1[C@@H]2C)c1ccccc1 (as salt: oxalate) [6d]
Reply | 138 to 139 °C

Ask | Okay, and C[C@H]1[C@H]2Cc3ccc(O)cc3[C@]1(C)CCN2CCCN(C)c1ccccc1 (as salt: oxalate) [6c] ?
Reply | 140 to 142 °C

Ask | Then this compound: C[C@H]1[C@H]2Cc3ccc(O)cc3[C@]1(C)CCN2CCNC1CCCCC1 (as salt: oxalate) [5b]
Reply | 153 to 155 °C

Ask | Now the same for C[C@H]1[C@H]2Cc3ccc(O)cc3[C@]1(C)CCN2CCCNC1CCCCC1 (as salt: oxalate) [6b]
Reply | 136 to 138 °C

Ask | Same question, CCN(CCN1CC[C@@]2(C)c3cc(O)ccc3C[C@@H]1[C@@H]2C)c1ccccc1 (as salt: oxalate) [5d] this time
Reply | 158 to 160 °C

Ask | Entry to check: C[C@H]1[C@H]2Cc3ccc(O)cc3[C@]1(C)CCN2CCCNc1ccccc1 (as salt: oxalate) [6a]
Reply | 149 to 150 °C

Ask | Next entry: C[C@H]1[C@H]2Cc3ccc(O)cc3[C@]1(C)CCN2CCNc1ccccc1 (as salt: oxalate) [5a]
Reply | 145 to 146 °C
